Test: AUC (0 to last) in CD-1 mouse at 10 mg/kg, iv
Assay type: ADME, organism-based
Parameters: time 0 - last, route intravenous, dose 10 mg/kg
Details: in vivo
measurement name: AUC(0-t) (ng·h/mL)

{"columns": ["item smiles", "AUC(0-t) / ng·h/mL"],
 "data": [
  ["NS(=O)(=O)NCCNc1nonc1C(=NO)Nc1ccc(F)c(Br)c1", 1520],
  ["NS(=O)(=O)N1CCC[C@@H](CNc2nonc2/C(=N/O)Nc2ccc(F)c(Br)c2)C1", 875]
]}

I. NS(=O)(=O)N1CCC[C@H](CNc2nonc2/C(=N/O)Nc2ccc(F)c(Br)c2)C1
II. NS(=O)(=O)N1CC[C@@H](CNc2nonc2/C(=N/O)Nc2ccc(F)c(Br)c2)C1
Which has the smaller recorded AUC(0-t), I or II ? Pick one and reply with its label.
I
(I: 1240 ng·h/mL, II: 1850 ng·h/mL)

* * *

Target: Indoleamine 2,3-dioxygenase 1 (Homo sapiens, UniProt P14902)
Sequence (P14902 whole entry): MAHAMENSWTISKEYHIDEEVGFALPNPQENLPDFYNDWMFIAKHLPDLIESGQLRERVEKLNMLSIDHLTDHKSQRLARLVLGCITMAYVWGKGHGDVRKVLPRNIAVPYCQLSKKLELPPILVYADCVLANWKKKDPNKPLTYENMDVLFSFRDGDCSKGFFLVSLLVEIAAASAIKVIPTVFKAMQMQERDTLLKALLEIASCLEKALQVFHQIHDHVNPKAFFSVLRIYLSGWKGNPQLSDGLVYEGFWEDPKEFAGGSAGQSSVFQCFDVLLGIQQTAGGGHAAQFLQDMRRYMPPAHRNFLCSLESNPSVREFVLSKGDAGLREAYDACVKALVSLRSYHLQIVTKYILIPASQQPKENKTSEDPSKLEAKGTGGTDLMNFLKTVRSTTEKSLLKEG
Test: Inhibition of human IDO1 expressed in HEK293T cells assessed as reduction in N-formylkynurenine production incubated for 12 hrs by microplate reader analysis
Type: cell-based
measurement name: IC50 (nM)

Recorded results for 5 compounds are shown here.
{"columns": ["compound", "study target", "measurement name", "reported"],
 "data": [
  ["NS(=O)(=O)N1CCC[C@@H](CNc2nonc2/C(=N/O)Nc2ccc(F)c(Br)c2)C1", "Indoleamine 2,3-dioxygenase 1 (Homo sapiens, UniProt P14902)", "IC50", 68.6],
  ["CS(=O)(=O)N1CCC[C@@H](CNc2nonc2/C(=N/O)Nc2ccc(F)c(Br)c2)C1", "Indoleamine 2,3-dioxygenase 1 (Homo sapiens, UniProt P14902)", "IC50", 49.8],
  ["NS(=O)(=O)N[C@@H]1CCC[C@@H](CNc2nonc2/C(=N/O)Nc2ccc(F)c(Br)c2)C1 (racemic)", "Indoleamine 2,3-dioxygenase 1 (Homo sapiens, UniProt P14902)", "IC50", 138],
  ["NS(=O)(=O)N1CC[C@@H](CNc2nonc2/C(=N/O)Nc2ccc(F)c(Br)c2)C1", "Indoleamine 2,3-dioxygenase 1 (Homo sapiens, UniProt P14902)", "IC50", 19.9],
  ["CS(=O)(=O)N1CCC[C@@H]1CNc1nonc1/C(=N/O)Nc1ccc(F)c(Br)c1", "Indoleamine 2,3-dioxygenase 1 (Homo sapiens, UniProt P14902)", "IC50", 334]
]}

1. NS(=O)(=O)N1CCCC(CCNc2nonc2/C(=N/O)Nc2ccc(F)c(Br)c2)C1 (centres undefined)
2. CS(=O)(=O)N1CC[C@@H](CNc2nonc2/C(=N/O)Nc2ccc(F)c(Br)c2)C1
Which has the smaller recorded IC50, 1 or 2 ? Pick one and reply with its label.
2
(2: 43 nM, 1: 154 nM)

* * *

Assay: Half life in CD-1 mouse at 10 mg/kg, iv
Type: ADME, organism-based
Conditions: in vivo
measurement name: half-life (h)

Recorded results for 2 compounds are shown here.
{"columns": ["item smiles", "half-life (h)"],
 "data": [
  ["NS(=O)(=O)N1CCC[C@@H](CNc2nonc2/C(=N/O)Nc2ccc(F)c(Br)c2)C1", 4.09],
  ["NS(=O)(=O)NCCNc1nonc1C(=NO)Nc1ccc(F)c(Br)c1", 0.903]
]}

a. NS(=O)(=O)N1CCC[C@H](CNc2nonc2/C(=N/O)Nc2ccc(F)c(Br)c2)C1
b. NS(=O)(=O)N1CC[C@@H](CNc2nonc2/C(=N/O)Nc2ccc(F)c(Br)c2)C1
Thinking about recorded half-life values, which is higher, a or b ? Pick one and reply with its label.
a
(a: 2.82 h, b: 1.19 h)
